The following compounds are listed with their measured IC50 values.
Target: TNFα (Homo sapiens, UniProt P01375)
Sequence (P01375 77-233 limits assumed): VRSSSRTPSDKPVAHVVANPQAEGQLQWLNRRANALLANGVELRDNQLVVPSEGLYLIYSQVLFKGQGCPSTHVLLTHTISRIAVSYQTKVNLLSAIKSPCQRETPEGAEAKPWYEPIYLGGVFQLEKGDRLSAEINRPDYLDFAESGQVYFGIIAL
Assay: TNF induced HEK-Blue assay (NF-kB-driven secreted alkaline phosphatase reporter)
Type: cell-based
Settings: TNFα 0.5 ng/mL, HEK-Blue-CD40L cells, 18 h; read-out: TNF induced HEK-Blue assay IC50 value
Description: TNF or CD40L-Induced HEK-Blue Assay Test compounds serially diluted in DMSO were plated in an assay plate (LABCYTE, Cat. # LP-0200) at final concentrations ranging from 0.004 μM to 25 μM. […] Secreted alkaline phosphatase expression was measured using QUANTI-Blue™ (INVIVOGEN, Cat. Code rep-qb1) according to manufacturer's specifications and the assay plate was read on a PerkinElmer Envision at 620 nm. […]

{"compound": "C[C@@H](Nc1c(Cl)cnc2cc(F)c(-c3cnc(N4CCN(CC(=O)NCC(=O)O)CC4)nc3)cc12)c1ccccc1F", "IC50": "< 1000 nM"}
{"compound": "Cc1nc2ccc(-c3ccc(C(C)(C)O)cc3)cc2c(N[C@H](C)c2cc(C(N)=O)ccc2F)c1Cl", "IC50": "< 1000 nM"}
{"compound": "Cc1nc2c(F)cc(-c3cnc(C(C)(C)O)nc3)cc2c(NC(C)c2ccc(F)cc2)c1Cl (racemic)", "IC50": "10000 to 25000 nM"}
{"compound": "O=C(O)CN1CCN(c2ccc(-c3ccc4ncc(Cl)c(N[C@@H](c5ccccc5F)C(F)F)c4c3)cn2)CC1", "IC50": "< 1000 nM"}
{"compound": "CC(Nc1c(Cl)cnc2ccc(-c3ccc(C(C)(C)O)cc3)cc12)c1cnco1 (racemic)", "IC50": "< 1000 nM"}

Task item: Need IC50 of CC(=O)NC(C)(C)c1ccc(-c2ccc3ncc(Cl)c(NC(C)c4ccccc4F)c3c2)cc1 (centres unmarked) , thanks.
Reply: 1000 to 10000 nM

Task item: Return reported IC50; argument: CC(O)C(=O)N1CCN(c2ncc(-c3cc4c(NC(C)c5ccccc5F)c(Cl)cnc4cc3F)cn2)CC1 (single isomer, unassigned)
Reply: < 1000 nM

Task item: Entry Cc1nc2ccc(-c3cnc(C(C)(C)O)nc3)cc2c(N[C@@H](c2cc(C(C)(C)O)ccc2F)C(F)F)c1Cl has what IC50?
Reply: < 1000 nM

Task item: // returns reported IC50 for input Cc1ccc(C)c(Nc2c(F)c(C)nc3ccc(-c4cnc(C(C)(C)O)nc4)cc23)c1
Reply: < 1000 nM

Task item: Quick check: IC50 of C[C@@H](Nc1c(Cl)cnc2ccccc12)c1cc(-c2cncc(C(=O)N3CCOCC3)c2)ccc1F ?
Reply: 1000 to 10000 nM

Task item: For C[C@@H](Nc1c(Cl)cnc2ccc(-c3cnc(C(C)(C)O)nc3)cc12)c1cc(-c2nnn(C)n2)ccc1F , what is its reported IC50?
Reply: < 1000 nM

Task item: Requested read-out: IC50. Entry: CC(Nc1c(Cl)cnc2ccc(-c3cnc(C(C)(C)O)nc3)cc12)[C@H]1CCCN(C(=O)OC(C)(C)C)C1 (mixture of isomers)
Reply: 1000 to 10000 nM

Task item: Fill in the blank: the reported IC50 of C[C@@H](Nc1c(Cl)cnc2ccc(-c3cnc(C(C)(C)O)nc3)cc12)c1cc(CO)ccc1F is ____.
Reply: < 1000 nM

Task item: Using the record for Cc1ccc(C)c(Nc2c(Cl)c(N)nc3ccc(-c4cnc(N5CCNC(=O)C5)nc4)cc23)c1 , report its IC50.
Reply: < 1000 nM
